Experimental System: T1, Human TNFR2 (soluble) recombinant protein (human, UniProt P20333 33-205, fluorescent label from the Monolith Protein Labeling Kit RED-NHS 2nd Generation (labelled target in MST))
T1 construct: human TNF receptor 2, soluble recombinant form; also called TNF receptor 2; p80; source: bought: PeproTech
T1 sequence: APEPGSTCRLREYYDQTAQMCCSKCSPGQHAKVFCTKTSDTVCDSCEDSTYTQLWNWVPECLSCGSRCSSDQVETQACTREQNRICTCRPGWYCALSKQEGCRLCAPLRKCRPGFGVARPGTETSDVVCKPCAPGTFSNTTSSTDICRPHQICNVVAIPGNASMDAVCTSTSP
Assay Summary: MST; labelled TNFR1 or TNFR2 (RED-NHS 2nd Generation) at 20 nM, peptide titrated in 16 serial dilutions, PBS, 20 min incubation in the dark, Monolith NT.115 Pico, medium MST power
Stated Conditions: both partners purified

# Binder, Kd / µM
rows = [
    ("NPQAEGQLQWLNRRA (15-residue stretch of human TNF predicted with Rosetta Peptiderive from the TNF-TNFR2 complex; Synthesised on Rink amide resin, so probably with a C-terminal amide (stated only for OB5); source: synthetic peptide (SPPS, Rink amide resin, HPLC purified)) [OB6 peptide]", 3.9),
]
